Attribution: patent US11352396B2

system: MSSP (Methicillin-Susceptible Staphylococcus pseudintermedius); experiment: MIC against selected strains of MSSP; format: cell-based; design: key: MIC in μM (first well with no visible growth); conditions: strain 76986, Table 3
Recorded MIC MSSP 76986, one value per entry.
Reported Endpoint: MIC MSSP 76986

> print(dat)
                                  substance  reported.endpoint  recorded.result
1  11 (KWCFRVCYRGICYRRCND; Artificial Antimicrobial peptide) [compound 11]     MIC MSSP 76986              0.8
2  2 (RWCFRVCYRGICYRRCRD; Artificial antimicrobial peptide) [compound 2]     MIC MSSP 76986              1.6
3  10 (KWCFRVCYRGICYHRCRD; Artificial Antimicrobial peptide) [compound 10]     MIC MSSP 76986              1.6
4  9 (KWCFRVCYRGFCYRRCRD; Artificial Antimicrobial peptide) [compound 9]     MIC MSSP 76986              0.8

---

system: Canine-derived epithelial keratinocyte (CPEK) cells; assay type: cell-based
Reported Endpoint: CPEK (50 μM)

> print(dat)
                                   substance  reported.endpoint  recorded.result
 1  105 (KWCFRVCYRGICYRRCRN; Artificial Antimicrobial peptide) [compound 105]       CPEK (50 μM)              8.6
 2  113 (KWCFRVCYRGICYRRCAD; Artificial Antimicrobial peptide) [compound 113]       CPEK (50 μM)             15.7
 3  107 (KWCFRVCWRGICYRRCRD; Artificial Antimicrobial peptide) [compound 107]       CPEK (50 μM)             26.3
 4  114 (KWCFRVCYRGICYRRCRR; Artificial Antimicrobial peptide) [compound 114]       CPEK (50 μM)             11.9
 5  99 (KWCFFVCYRGICYRRCRD; Artificial Antimicrobial peptide) [compound 99]       CPEK (50 μM)             19.9
 6  28 (PKWCFRVCYRGICYRRCR; Artificial Antimicrobial peptide) [compound 28]       CPEK (50 μM)             19.4
 7  7 (KWCFRVCYRGVCYRRCRD; Artificial Antimicrobial peptide) [compound 7]       CPEK (50 μM)             11.3
 8  9 (KWCFRVCYRGFCYRRCRD; Artificial Antimicrobial peptide) [compound 9]       CPEK (50 μM)             52.3
 9  1 (KWCFRVCYRGICYRRCRD; Antimicrobial peptide) [compound 1]       CPEK (50 μM)             21.5
10  98 (KWCVRVCYRGICYRRCRD; Artificial Antimicrobial peptide) [compound 98]       CPEK (50 μM)              9.3
11  109 (KWCFRVCYRRICYRRCRD; Artificial Antimicrobial peptide) [compound 109]       CPEK (50 μM)             19.2
12  100 (KWCFWVCYRGICYRRCRD; Artificial Antimicrobial peptide) [compound 100]       CPEK (50 μM)             29.5
13  31 (PWCFRVCYRGICYRRCRD; Artificial Antimicrobial peptide) [compound 31]       CPEK (50 μM)             11.0
14  6 (KWCFRVCRRGICYRRCRD; Artificial Antimicrobial peptide) [compound 6]       CPEK (50 μM)              4.1
15  2 (RWCFRVCYRGICYRRCRD; Artificial antimicrobial peptide) [compound 2]       CPEK (50 μM)             −1.7
16  103 (KWCFRVCKRGICYRRCRD; Artificial Antimicrobial peptide) [compound 103]       CPEK (50 μM)             −0.5
